- assayedTarget: recombinant pentameric gH complex (Towne strain) (human cytomegalovirus, Towne strain) (UniProt P17176)
- Sequence (P17176 30-715, one chain of several): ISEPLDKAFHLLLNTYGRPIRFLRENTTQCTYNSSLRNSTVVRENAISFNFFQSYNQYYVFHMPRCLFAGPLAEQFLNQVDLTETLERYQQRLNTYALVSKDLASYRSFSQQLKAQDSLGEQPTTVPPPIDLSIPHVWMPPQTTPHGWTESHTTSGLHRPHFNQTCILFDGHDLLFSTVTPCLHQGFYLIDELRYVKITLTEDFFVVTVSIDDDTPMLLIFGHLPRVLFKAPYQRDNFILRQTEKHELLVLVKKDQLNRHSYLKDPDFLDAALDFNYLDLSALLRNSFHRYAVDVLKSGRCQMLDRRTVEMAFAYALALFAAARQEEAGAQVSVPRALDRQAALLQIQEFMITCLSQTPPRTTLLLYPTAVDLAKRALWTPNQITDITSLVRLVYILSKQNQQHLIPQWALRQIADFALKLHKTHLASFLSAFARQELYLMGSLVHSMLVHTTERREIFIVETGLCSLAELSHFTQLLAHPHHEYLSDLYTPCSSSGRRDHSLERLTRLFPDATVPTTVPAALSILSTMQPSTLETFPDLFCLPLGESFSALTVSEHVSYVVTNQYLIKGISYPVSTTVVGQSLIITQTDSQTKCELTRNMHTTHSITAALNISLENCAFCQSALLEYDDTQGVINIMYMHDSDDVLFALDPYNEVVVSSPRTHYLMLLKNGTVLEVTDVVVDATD
- experiment: BLI competition on His-pentamer; competitor (antibody 2): 1-150
quantityMeasured: Pair-wise inhibition (%)
Express your answer in %, writing the number without its unit.

Worked cases, answers included:
1-32 (antibody, V domains shown) VH: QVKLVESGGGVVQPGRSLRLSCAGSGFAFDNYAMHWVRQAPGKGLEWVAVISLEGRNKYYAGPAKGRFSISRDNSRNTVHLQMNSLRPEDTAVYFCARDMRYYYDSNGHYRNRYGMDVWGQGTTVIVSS VL: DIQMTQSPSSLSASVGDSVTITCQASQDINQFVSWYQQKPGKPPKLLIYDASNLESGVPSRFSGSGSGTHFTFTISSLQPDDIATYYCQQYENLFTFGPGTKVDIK = 4
1-150 (antibody, V domains shown) VH: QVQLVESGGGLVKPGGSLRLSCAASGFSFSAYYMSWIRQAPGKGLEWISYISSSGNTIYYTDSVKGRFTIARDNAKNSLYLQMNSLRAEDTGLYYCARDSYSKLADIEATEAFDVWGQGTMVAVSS VL: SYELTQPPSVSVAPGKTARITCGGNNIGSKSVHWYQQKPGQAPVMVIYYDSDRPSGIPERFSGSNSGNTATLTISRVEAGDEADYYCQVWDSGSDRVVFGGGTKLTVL = 104

Ask: Please give the measured Pair-wise inhibition (%) for this binder: 2-25 (antibody, V domains shown) VH: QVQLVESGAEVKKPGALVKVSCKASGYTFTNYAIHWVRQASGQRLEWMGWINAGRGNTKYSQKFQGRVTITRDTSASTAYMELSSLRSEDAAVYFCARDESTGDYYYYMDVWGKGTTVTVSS VL: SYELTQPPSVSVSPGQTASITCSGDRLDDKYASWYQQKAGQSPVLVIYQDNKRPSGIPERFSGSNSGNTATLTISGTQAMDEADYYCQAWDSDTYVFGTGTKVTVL
Result: -17
